Biological target: GlyT1 (Homo sapiens)
Construct: Human placental choriocarcinoma cells endogenously expressing GlyT1 can be cultured using standard conditions; host or cells: JAR human placental choriocarcinoma cells
Assay: [14C]-glycine uptake in JAR cells endogenously expressing GlyT1 (Cytostar T scintillation proximity)
Assay type: cell-based
Conditions: read-out: Potency (IC50)
Experimental: Human placental choriocarcinoma cells endogenously expressing GlyT1 can be cultured using standard conditions. Cells can then be grown at 37° C. in a humidified atmosphere 40-48 hours before the assay. […] After incubation the microplates can be sealed and counted. Non-specific uptake of [^14C]-glycine can be determined in the presence of unlabeled glycine. […]
parameterMeasured: IC50 (nM)

# molecule, IC50 / nM
rows = [
    ("Cn1cnc(S(=O)(=O)N2CC3CCC(NC(=O)c4ccccc4F)C3C2)c1 (stereo not drawn)", 1800),
]

[I] Cn1cnc(S(=O)(=O)N2CC3CCC(NC(=O)c4c(F)cccc4F)C3C2)c1 (stereo not drawn)
[II] Cn1cnc(S(=O)(=O)N2CC3CCC(NC(=O)c4ccccc4C(F)(F)F)C3C2)c1 (stereo not drawn)
[III] Cn1cnc(S(=O)(=O)N2CC3CCC(NC(=O)c4ccc(F)cc4)C3C2)c1 (stereo not drawn)
[IV] CCCS(=O)(=O)N1CC2CCC(NC(=O)c3ccc(Cl)cc3Cl)C2C1 (stereo not drawn)
Asked: Output the entries ranked by IC50 from maximum down to minimum. Enter labels, ranked according to the request.
Given back: IV, III, I, II

[P] Cn1cnc(S(=O)(=O)N2CC3CCC(NC(=O)c4ccc(Cl)c(Cl)c4)C3C2)c1 (stereo not drawn)
[Q] Cn1cnc(S(=O)(=O)N2CC3CCC(NC(=O)c4ccccc4Cl)C3C2)c1 (stereo not drawn)
Asked: I need your help: which of the pair P , Q has higher IC50? Lab log: write the label of the selected item as the result.
Given back: P

----------
Target: GlyT1 (Homo sapiens, UniProt P48067)
Construct: Human placental choriocarcinoma cells endogenously expressing GlyT1 can be cultured using standard conditions; host or cells: JAR human placental choriocarcinoma cells
Sequence (P48067 whole entry): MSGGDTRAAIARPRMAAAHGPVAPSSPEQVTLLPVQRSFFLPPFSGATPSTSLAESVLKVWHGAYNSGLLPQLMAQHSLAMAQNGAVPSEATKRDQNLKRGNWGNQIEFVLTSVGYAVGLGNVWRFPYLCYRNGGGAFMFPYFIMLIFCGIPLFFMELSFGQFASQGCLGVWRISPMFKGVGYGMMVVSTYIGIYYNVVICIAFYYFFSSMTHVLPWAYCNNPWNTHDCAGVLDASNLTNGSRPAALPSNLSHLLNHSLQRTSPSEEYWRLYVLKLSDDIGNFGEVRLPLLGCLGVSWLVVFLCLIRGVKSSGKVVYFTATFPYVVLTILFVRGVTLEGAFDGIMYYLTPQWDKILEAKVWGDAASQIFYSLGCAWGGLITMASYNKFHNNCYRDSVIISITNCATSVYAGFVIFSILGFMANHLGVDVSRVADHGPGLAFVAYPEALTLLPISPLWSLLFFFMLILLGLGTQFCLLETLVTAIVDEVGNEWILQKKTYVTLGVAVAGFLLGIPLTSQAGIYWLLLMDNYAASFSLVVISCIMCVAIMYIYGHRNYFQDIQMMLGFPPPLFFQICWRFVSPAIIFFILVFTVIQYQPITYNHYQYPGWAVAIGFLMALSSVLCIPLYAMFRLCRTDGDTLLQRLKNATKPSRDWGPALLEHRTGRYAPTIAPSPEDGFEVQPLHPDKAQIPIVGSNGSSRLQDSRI
Test: [14C]-glycine uptake in JAR cells endogenously expressing GlyT1 (Cytostar T scintillation proximity)
Assay type: cell-based
Conditions: inhibition of [14C]-glycine uptake (10 μM), JAR cells, 3 h; read-out: Potency (IC50)
parameterMeasured: IC50 (nM)
Write the value in nM as a bare number.

Measured IC50, Cn1cnc(S(=O)(=O)N2CC3CCC(NC(=O)c4ccc(F)c(F)c4)C3C2)c1 (stereo not shown) : 903

Origin of measurements: patent US8211933B2
